log2 fold change of degron read counts: recorded values
Molecular target: T1, CRBN, Q96SW2;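 further: pooled lentiviral library of zinc finger degron-EGFP fusions in mCherry-positive Jurkat cells, FACS-sorted after compound exposure, with degron abundance counted by next-generation sequencing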
T1 chain: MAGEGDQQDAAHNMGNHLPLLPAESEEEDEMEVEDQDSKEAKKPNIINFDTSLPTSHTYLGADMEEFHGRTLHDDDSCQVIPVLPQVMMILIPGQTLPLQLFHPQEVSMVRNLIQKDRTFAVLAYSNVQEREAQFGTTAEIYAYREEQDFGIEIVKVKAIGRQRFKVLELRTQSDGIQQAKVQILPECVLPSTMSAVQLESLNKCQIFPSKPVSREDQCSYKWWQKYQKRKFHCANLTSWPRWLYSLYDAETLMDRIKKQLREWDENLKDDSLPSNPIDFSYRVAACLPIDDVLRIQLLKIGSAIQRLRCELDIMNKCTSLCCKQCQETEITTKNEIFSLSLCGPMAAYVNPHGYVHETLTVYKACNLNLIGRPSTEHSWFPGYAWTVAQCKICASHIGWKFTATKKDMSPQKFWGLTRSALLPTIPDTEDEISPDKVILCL
Experiment: log2 fold change of degron read counts, EGFP-low vs EGFP+ sorted cells (limma voom), compound-induced degradation; higher = more compound-induced degradation of the degron-EGFP fusion; degrons are variants of IKZF1/3 zinc finger 2; compound dose not given here
Conditions: Jurkat; 18 h; compound: compound 33 (diphenyl IMiD analogue)
In all, about 8,300 sequences were measured (“log2 fold change of degron read counts, EGFP-low vs EGFP+ sorted cells (limma voom), compound-induced degradation”: median about -1.1, highest 2% from about 3.2 on). Many of the other results were omitted from the sample, so the highest values are more common in it than they were.
Lab note: record the figure alone, no unit after it.

So, FGCDQCGATFTQKGNLLRHIKL [46F_47G_49D_50Q_52G_53A_54T_55F_67L_, Q9UKT9] ? Its log2 fold change of degron read counts was -1.3

So, LFCPICGFVCTQKGNLLRHIKL [46L_47F_49P_50I_52G_53F_54V_55C_67L_, Q9UKT9] ? Its log2 fold change of degron read counts was 1.66

So, FRCEQCGASFTQKGNLLRHIKL [46F_47R_49E_50Q_52G_53A_54S_55F_67L_, Q9UKT9] ? Its log2 fold change of degron read counts was 0.513

So, FTCEICGAMFTQKGNLLRHIKL [46F_47T_49E_50I_52G_53A_54M_55F_67L_, Q9UKT9] ? Its log2 fold change of degron read counts was 1.62

Kindly consider the entry below.
So, FMCPQCGARFTQKGNLLRHIKL [46F_47M_49P_50Q_52G_53A_54R_55F_67L_, Q9UKT9] ? Its log2 fold change of degron read counts was 0.32
